- TESTED TARGET: T1, yedK R85A (Escherichia coli (gene from BL21 …, UniProt P76318 2-222, R85A))
- T1 sequence: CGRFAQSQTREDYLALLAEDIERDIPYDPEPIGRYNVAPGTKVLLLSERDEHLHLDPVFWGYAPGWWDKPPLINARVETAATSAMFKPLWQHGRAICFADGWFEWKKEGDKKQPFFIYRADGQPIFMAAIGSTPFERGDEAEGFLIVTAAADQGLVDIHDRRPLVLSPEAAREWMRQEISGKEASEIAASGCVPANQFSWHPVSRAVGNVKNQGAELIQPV
- PROTOCOL DETAILS: ITC
ENDPOINT LABEL: Kd (µM)
Give a bare numeral; the unit µM is implied.

Returns the measured Kd for the input binder. Input: CGGTCGATTC (ssDNA) [ssDNA]
16.9
